Target: Hexose transporter 1 (Plasmodium falciparum) (UniProt O97467)
Assay: ST_JUDE_LEISH: Cytotoxicity at 2uM final concentration against transgenic Leishmania Mexicana promastigotes LmPfHT that are glucose transport deficient and complemented with the Plasmodium falciparum hexose transporter. Activity is measured by DNA content using SYBR green in vitro
Assay type: functional
readoutName: inhibition (%)
Just the number please, in %, no unit attached.

c1ccc(CCNCc2ccc(-c3cccc(CNc4ccc5ncccc5c4)c3)cc2)cc1 | 11.7
CCCNCc1ccc(-c2ccc(CN(CCOC)C(=O)CCCOCc3ccccc3)cc2)nc1 | 1.41
CCCCCn1c(Sc2ccc(C#N)c([N+](=O)[O-])c2)nnc1-c1ccc(Cl)cc1 | 4.27
O=C(Nc1cccc(CN2CCCN(Cc3ccc(O)cc3)CC2)c1)c1cccc(F)c1 | 10.4
O=C(C=Cc1cn(-c2ccccc2)nc1-c1ccccc1)N1CCN(c2ccncc2)CC1 | 5.64
CCCNCc1c(O)ccc2c(CNCCC)c(O)ccc12 | -0.89
O=C(NCCCCCN1CCC(c2c[nH]c3ccccc23)C1)Nc1ccc(Cl)c(Cl)c1 (centres undefined) | 3.21
CCOc1ccc(Br)cc1/C=C/C(=O)Nc1ccc2c(c1)CN(C)CCC2 | 5.18

The molecule identified as FC(F)c1nc2ccccc2n1-c1nc(N2CCOCC2)nc(N2CCOCC2)n1 registered its inhibition at 2.9

The molecule identified as CC(Nc1ccnc2cc(Cl)ccc12)c1ccc(S(N)(=O)=O)cc1 (centres undefined) registered its inhibition at 1.3

The molecule identified as CC(C)CNCc1ccc(-c2cccc(CN(CCN(C)C)C(=O)CCC3CCCC3)c2)cc1 registered its inhibition at 23.7

The molecule identified as Cc1cc2nc(-c3ccc(SCC(=O)Nc4ccc5c(c4)OCCO5)nc3)[nH]c2cc1C registered its inhibition at -0.74

The molecule identified as COc1cc(NCC(CN)Cc2ccc3c(c2)OCO3)nc2ccccc12 (centres undefined) registered its inhibition at 3.95

The molecule identified as Cc1ccc2[nH]c3c(c2c1)CC(C(=O)NCCC(C)C)NC31CCN(Cc2ccccc2)CC1 (centres undefined) registered its inhibition at -3.4

The molecule identified as O=c1ccc(-c2nc3cc(Cl)c(Cl)cc3n2Cc2ccc(Cl)cc2Cl)c[nH]1 registered its inhibition at -0.54

The molecule identified as COc1ccc2nccc(N3CCC(SCCNCc4ccc5c(n4)NC(=O)CS5)C3)c2n1 (centres undefined) registered its inhibition at -0.72

The molecule identified as O=S(=O)(ON=C1CCc2ccccc21)c1ccc(Cl)cc1 registered its inhibition at -0.07

The molecule identified as Cc1cc(Cl)c(S(=O)(=O)NC2CCCC2)cc1OCC(=O)NC1CCCCC1 registered its inhibition at 2.41

The molecule identified as CN1CCN(CCCN(Cc2ccc(-c3cccc(CNCc4ccc5c(c4)OCO5)c3)cc2)C(=O)NCCc2ccccc2)CC1 registered its inhibition at 2.67

The molecule identified as CC(C)c1ncc(-c2ccncc2)c(C2CCC(CNC(=O)c3ccncc3)CC2)n1 (centres undefined) registered its inhibition at -0.19

The molecule identified as CN1CCCN(Cc2cccc(-c3ccc(NS(=O)(=O)c4cccc5cccnc45)cc3)c2)CC1 registered its inhibition at 1.21

The molecule identified as CNC(=O)CSc1nnc(-c2ccc(C)cc2)c(-c2ccc(C)cc2)n1 registered its inhibition at 2.74

The molecule identified as CCN(CC)c1ccc2nc(N)nc(N)c2c1 registered its inhibition at 16.5

The molecule identified as CCN(CC)CCNc1nc(C=Cc2ccc(Cl)cc2)nc2cc3ccccc3cc12 registered its inhibition at -0.58

The molecule identified as Cc1cc(C(=O)Nc2ccc(C)c(-c3nc(N(C(=O)c4ccc(F)c(C)c4)C4CCNCC4)nc4c3ccc(=O)n4-c3c(F)cccc3F)c2)ccc1F registered its inhibition at 0.07

Reference for the values: ChEMBL document CHEMBL3433997
